- Measured on: recombinant human BACE1 (rhBACE1) (human, UniProt P56817 22-457, limits assumed)
- Sequence (P56817 22-457 limits assumed): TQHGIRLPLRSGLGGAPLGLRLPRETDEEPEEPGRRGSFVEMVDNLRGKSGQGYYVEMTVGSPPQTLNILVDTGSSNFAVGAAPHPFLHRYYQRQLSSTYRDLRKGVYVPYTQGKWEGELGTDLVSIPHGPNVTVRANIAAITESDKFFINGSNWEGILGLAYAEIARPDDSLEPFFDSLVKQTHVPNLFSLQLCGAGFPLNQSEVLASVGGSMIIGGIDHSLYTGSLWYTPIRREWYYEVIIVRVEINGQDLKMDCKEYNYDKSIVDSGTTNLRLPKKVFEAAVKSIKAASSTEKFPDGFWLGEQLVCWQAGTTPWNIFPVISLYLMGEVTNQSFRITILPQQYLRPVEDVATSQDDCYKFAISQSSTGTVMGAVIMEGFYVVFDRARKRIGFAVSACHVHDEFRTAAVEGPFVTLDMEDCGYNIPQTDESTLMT
- Assay info: cell-based or functional assay
Positions of bridges follow the written chain, without caps; N, C: chain ends.
Note to self: class = bucket of Caliper (MCE) BACE1 activity assay IC50, per lower bin: < 20 nM; middle bin: ≥ 20 nM and < 300 nM; upper bin: ≥ 300 nM

Below, 5 binders whose answers are already recorded.
{"columns": ["Binder", "Classification"],
 "data": [
  ["Ac-NEESMFCRLLGIGCG-NH2 (disulfide 7-14 (inferred), also called BACE020 Tyr6 to Phe) [BACE055]", "lower bin"],
  ["Ac-NEESAYCRLLGIGCG-NH2 (disulfide 7-14 (inferred), also called BACE020 Met5 to Ala) [BACE046]", "upper bin"],
  ["Ac-NEESMYCRLLGIGCA-NH2 (disulfide 7-14 (inferred), also called BACE020 Gly15 to Ala) [BACE054]", "lower bin"],
  ["Ac-SMYCRLLGIGCG-NH2 (disulfide 4-11 (inferred), also called BACE31) [BACE031]", "upper bin"],
  ["Ac-ESMYCRLLGIGCG-NH2 (disulfide 5-12; SMILES CC[C@H](C)[C@@H]1NC(=O)CNC(=O)[C@H](CC(C)C)NC(=O)[C@H](CC(C)C)NC(=O)[C@H](CCCNC(=N)N)NC(=O)[C@@H](NC(=O)[C@H](Cc2ccc(O)cc2)NC(=O)[C@H](CCSC)NC(=O)[C@H](CO)NC(=O)[C@H](CCC(=O)O)NC(C)=O)CSSC[C@@H](C(=O)NCC(N)=O)NC(=O)CNC1=O, Minimal version of BACE020 with full activity) [BACE030]", "lower bin"]
]}

stdin: Assign a category based on measured Caliper (MCE) BACE1 activity assay IC50 for Ac-MYCRLLGIGCG-NH2 (disulfide 3-10 (inferred)) [BACE032] and give only the class name.
stdout: upper bin

stdin: Assign a category based on measured Caliper (MCE) BACE1 activity assay IC50 for Ac-NEESMYCRLAGIGCG-NH2 (disulfide 7-14 (inferred), also called BACE020 Leu10 to Ala) [BACE050] and give only the class name.
stdout: middle bin

stdin: Assign a category based on measured Caliper (MCE) BACE1 activity assay IC50 for Ac-NELSPYCRLMGLGCD-NH2 (disulfide 7-14 (inferred), also called BACE-19) [BACE019] and give only the class name.
stdout: lower bin

stdin: Assign a category based on measured Caliper (MCE) BACE1 activity assay IC50 for Ac-NEESMACRLLGIGCG-NH2 (disulfide 7-14 (inferred), also called BACE020 Tyr6 to Ala) [BACE047] and give only the class name.
stdout: middle bin

All values here come from patent US20140228277A1.
